System: 817829-284-R-J1-PDC complex spheroid viability;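 also: spheroids exposed to compounds for 7 days; 100% = DMSO vehicle-treated spheroids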
Assay: Anticancer human tumor 817829-284-R-J1-PDC patient-derived colon adenocarcinoma cell line growth inhibition [POLQ]
Conditions: second compound 10 µM; first compound 1 µM; active compounds read low
Experimental: Multicellular complex tumor spheroid response to Polymerase (POL) inhibitors (novobiocin, ART-558, RP6685) in combination with a variety of drugs and investigational agents in selected tumor cell lines The POL inhibitors (novobiocin, ART-558, and RP6685) were evaluated both individually and in combination with standard of care and investigational anticancer small molecules within a complex spheroid model of solid tumors. . […]
Labelling: viability, T/C reported below 60% becomes label 1; at or above becomes label 0.

Consider the compound CC(C)n1c(=O)n(C)c2cnc3cc(F)c(-c4ccc(OCCCN5CCCCC5)nc4)cc3c21 + COC1C(OC(N)=O)C(O)C(Oc2ccc3c(O)c(NC(=O)c4ccc(O)c(CC=C(C)C)c4)c(=O)oc3c2C)OC1(C)C . Is its viability, T/C strictly less than 60%?
label 0

Consider the compound CC1COCCN1c1cc(-c2ccnn2C)c2ccnc(-c3ccn[nH]3)c2n1 (stereo unspecified) + Nc1ccc(C#CCN(C(=O)Cc2ncc(C(F)(F)F)cc2C(F)(F)F)c2ccc(F)cc2)nn1 . Is its viability, T/C strictly less than 60%?
label 1

Consider the compound CCc1cc2c(N3CCc4c(cc(Cn5ccnc5)cc4-c4cn(C)nc4C(F)(F)F)C3=O)ccnc2c(OC)n1 + COC1C(OC(N)=O)C(O)C(Oc2ccc3c(O)c(NC(=O)c4ccc(O)c(CC=C(C)C)c4)c(=O)oc3c2C)OC1(C)C . Is its viability, T/C strictly less than 60%?
label 0

Consider the compound Nc1ccn(C2OC(CO)C(O)C2(F)F)c(=O)n1 (stereo unspecified) + Nc1ccc(C#CCN(C(=O)Cc2ncc(C(F)(F)F)cc2C(F)(F)F)c2ccc(F)cc2)nn1 . Is its viability, T/C strictly less than 60%?
label 1

Consider the compound C=CC(=O)N1CCN(c2nc(=O)n(-c3c(C)ccnc3C(C)C)c3nc(-c4c(O)cccc4F)c(F)cc23)C(C)C1 (stereo unspecified) + Nc1ccc(C#CCN(C(=O)Cc2ncc(C(F)(F)F)cc2C(F)(F)F)c2ccc(F)cc2)nn1 . Is its viability, T/C strictly less than 60%?
label 0

Consider the compound O=C(Nc1ccc(O)c(NS(=O)(=O)c2ccc(F)cc2)c1)c1ccc(-c2ccccc2)cc1 + Cc1cccc(N(C)C(=O)C2C(O)CCN2c2nc(C)cc(C(F)(F)F)c2C#N)c1 . Is its viability, T/C strictly less than 60%?
label 0

Consider the compound CCc1cc2c(N3CCc4c(cc(Cn5ccnc5)cc4-c4cn(C)nc4C(F)(F)F)C3=O)ccnc2c(OC)n1 + Nc1ccc(C#CCN(C(=O)Cc2ncc(C(F)(F)F)cc2C(F)(F)F)c2ccc(F)cc2)nn1 . Is its viability, T/C strictly less than 60%?
label 0

Consider the compound COc1cc(C2c3cc4c(cc3C(OC3OC5COC(C)OC5C(O)C3O)C3COC(=O)C23)OCO4)cc(OC)c1O (stereo unspecified) + COC1C(OC(N)=O)C(O)C(Oc2ccc3c(O)c(NC(=O)c4ccc(O)c(CC=C(C)C)c4)c(=O)oc3c2C)OC1(C)C . Is its viability, T/C strictly less than 60%?
label 1

Consider the compound CCCS(=O)(=O)Nc1ccc(F)c(C(=O)c2c[nH]c3ncc(-c4ccc(Cl)cc4)cc23)c1F + Cc1cccc(N(C)C(=O)C2C(O)CCN2c2nc(C)cc(C(F)(F)F)c2C#N)c1 . Is its viability, T/C strictly less than 60%?
label 0

Consider the compound Nc1ccn(C2OC(CO)C(O)C2(F)F)c(=O)n1 (stereo unspecified) + Cc1cccc(N(C)C(=O)C2C(O)CCN2c2nc(C)cc(C(F)(F)F)c2C#N)c1 . Is its viability, T/C strictly less than 60%?
label 1
